MEASURED ON: hNET (Homo sapiens, UniProt P23975)
Construct: expressed in transfected cells; host or cells: HEK-293 (HEK-hNET), membranes
Sequence (P23975 whole entry): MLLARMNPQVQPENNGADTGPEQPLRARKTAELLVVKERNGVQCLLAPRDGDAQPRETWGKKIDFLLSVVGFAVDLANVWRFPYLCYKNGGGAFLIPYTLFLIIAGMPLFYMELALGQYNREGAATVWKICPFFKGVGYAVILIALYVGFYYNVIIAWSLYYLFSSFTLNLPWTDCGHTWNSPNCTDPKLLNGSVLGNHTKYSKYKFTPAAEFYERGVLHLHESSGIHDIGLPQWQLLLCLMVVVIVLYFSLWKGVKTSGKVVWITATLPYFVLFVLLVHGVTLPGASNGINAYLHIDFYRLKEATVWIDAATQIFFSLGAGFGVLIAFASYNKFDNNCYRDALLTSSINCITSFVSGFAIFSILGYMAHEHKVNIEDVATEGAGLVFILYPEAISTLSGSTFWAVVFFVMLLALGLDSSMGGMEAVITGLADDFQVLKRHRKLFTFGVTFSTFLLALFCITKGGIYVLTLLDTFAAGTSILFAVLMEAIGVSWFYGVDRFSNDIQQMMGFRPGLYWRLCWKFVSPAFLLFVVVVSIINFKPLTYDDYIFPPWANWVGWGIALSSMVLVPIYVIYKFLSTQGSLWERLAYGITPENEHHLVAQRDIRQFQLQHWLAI
METHOD DESCRIPTION: competition binding assay, recombinant human NET in HEK-293 cell membranes
QUANTITY: pKi
Notebook: values listed as pKi are -log10 of the concentration (mol/L).

## Task Output pKi of OC1(c2ccc(Cl)cc2)c2ccccc2C2=NCCN21 (stereo not shown)
## Result 7.62

* * *

MEASURED ON: hSERT (Homo sapiens, UniProt P31645)
Construct: expressed in transfected cells; host or cells: HEK-293 (HEK-hSERT), membranes
Sequence (P31645 whole entry): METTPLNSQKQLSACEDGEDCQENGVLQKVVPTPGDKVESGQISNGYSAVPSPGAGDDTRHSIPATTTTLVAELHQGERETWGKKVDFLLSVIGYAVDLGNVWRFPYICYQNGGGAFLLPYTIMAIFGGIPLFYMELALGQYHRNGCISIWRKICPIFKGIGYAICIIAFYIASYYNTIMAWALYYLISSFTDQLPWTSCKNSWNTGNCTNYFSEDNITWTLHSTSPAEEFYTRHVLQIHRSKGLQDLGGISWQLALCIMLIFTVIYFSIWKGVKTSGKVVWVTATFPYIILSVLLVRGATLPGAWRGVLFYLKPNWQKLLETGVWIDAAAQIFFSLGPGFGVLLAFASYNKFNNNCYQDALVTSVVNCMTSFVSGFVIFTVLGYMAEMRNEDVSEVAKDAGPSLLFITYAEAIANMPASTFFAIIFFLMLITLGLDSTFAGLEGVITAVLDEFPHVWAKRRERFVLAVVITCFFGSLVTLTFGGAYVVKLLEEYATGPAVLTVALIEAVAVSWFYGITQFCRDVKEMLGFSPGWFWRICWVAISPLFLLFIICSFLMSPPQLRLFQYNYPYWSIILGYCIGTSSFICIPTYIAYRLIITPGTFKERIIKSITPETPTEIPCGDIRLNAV
METHOD DESCRIPTION: competition binding assay, recombinant human SERT in HEK-293 cell membranes
QUANTITY: pKi
Notebook: values listed as pKi are -log10 of the concentration (mol/L).

## Task Output pKi of OC1(c2ccc(Cl)cc2)c2ccccc2C2=NCCN21 (stereo not shown)
## Result 7.25

* * *

MEASURED ON: hDAT (Homo sapiens)
Sequence (Q01959 whole entry): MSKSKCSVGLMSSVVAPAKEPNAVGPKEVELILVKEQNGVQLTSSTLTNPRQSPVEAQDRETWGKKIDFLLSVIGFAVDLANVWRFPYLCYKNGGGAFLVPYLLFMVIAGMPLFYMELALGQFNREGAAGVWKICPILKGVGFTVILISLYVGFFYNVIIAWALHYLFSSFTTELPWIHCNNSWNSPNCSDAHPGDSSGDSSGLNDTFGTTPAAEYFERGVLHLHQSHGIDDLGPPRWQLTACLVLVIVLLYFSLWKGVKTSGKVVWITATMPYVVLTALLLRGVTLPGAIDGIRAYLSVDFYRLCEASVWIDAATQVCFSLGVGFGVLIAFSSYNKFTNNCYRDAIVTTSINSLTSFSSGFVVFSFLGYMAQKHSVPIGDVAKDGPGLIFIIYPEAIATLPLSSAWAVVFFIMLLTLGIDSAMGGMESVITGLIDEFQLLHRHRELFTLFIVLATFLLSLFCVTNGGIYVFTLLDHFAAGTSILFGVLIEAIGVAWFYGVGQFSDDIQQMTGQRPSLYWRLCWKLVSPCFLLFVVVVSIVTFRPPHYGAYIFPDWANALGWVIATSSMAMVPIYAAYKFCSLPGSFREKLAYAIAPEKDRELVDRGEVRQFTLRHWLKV
METHOD DESCRIPTION: competition binding assay, recombinant human DAT in HEK-293 cell membranes
CONDITION SET: [125I]RTI-55 0.2 nM, ± mean standard error, 3 trials, read-out: Inhibition of binding at human monoamine transporters (Ki) hDAT
QUANTITY: Ki (nM)
# value in nM; strip the unit string

## Task Output Ki of Clc1ccc(C2c3ccccc3C3=NCCN32)cc1 (stereo not drawn) [Cpd 2]
## Result 45

## Task Output Ki of OC1(c2ccc(Cl)c(Cl)c2)c2ccccc2C2=NCCN21 (stereo not drawn)
## Result 25

## Task Output Ki of Clc1ccc(C2c3ccccc3C3=NCCN32)cc1 (stereo not drawn) [Cpd 3]
## Result 111

* * *

MEASURED ON: hSERT (Homo sapiens, UniProt P31645)
Construct: expressed in transfected cells; host or cells: HEK-293 (HEK-hSERT), membranes
METHOD DESCRIPTION: competition binding assay, recombinant human SERT in HEK-293 cell membranes
CONDITION SET: [3H]Paroxetine 0.4 nM, HEK-hSERT membranes, ± mean standard error, 3 trials; read-out: Inhibition of binding at human monoamine transporters (Ki) hSERT
Could you please report measured Ki for the items listed next?

## Task Output Ki of Clc1ccc(C2c3ccccc3C3=NCCN32)cc1 (stereo not drawn) [Cpd 2]
## Result 14 nM

## Task Output Ki of Clc1ccc(C2c3ccccc3C3=NCCN32)cc1 (stereo not drawn) [Cpd 3]
## Result 312 nM

## Task Output Ki of OC1(c2ccc(Cl)c(Cl)c2)c2ccccc2C2=NCCN21 (stereo not drawn) [Cpd 1]
## Result 101 nM
